- method.description: Early bioavailability determination (plasma PK)
- Format: in vivo, Sprague Dawley rats
- conditions.used: male, Sprague Dawley, plasma; PO, 10 mg/kg, rat, mean
quantity.measured: Cmax (ng/mL)
Respond with the bare value in ng/mL.

Qu. Form field: reported Cmax of `Cc1ccnc(Nc2cccc(-c3cnc(N4CCNC(=O)C45CC5)o3)c2)n1`
Ans. 122

* * *

- study.system: VEGFR1 (Homo sapiens (Human), UniProt P17948)
- Sequence (P17948 27-1338, species assumed): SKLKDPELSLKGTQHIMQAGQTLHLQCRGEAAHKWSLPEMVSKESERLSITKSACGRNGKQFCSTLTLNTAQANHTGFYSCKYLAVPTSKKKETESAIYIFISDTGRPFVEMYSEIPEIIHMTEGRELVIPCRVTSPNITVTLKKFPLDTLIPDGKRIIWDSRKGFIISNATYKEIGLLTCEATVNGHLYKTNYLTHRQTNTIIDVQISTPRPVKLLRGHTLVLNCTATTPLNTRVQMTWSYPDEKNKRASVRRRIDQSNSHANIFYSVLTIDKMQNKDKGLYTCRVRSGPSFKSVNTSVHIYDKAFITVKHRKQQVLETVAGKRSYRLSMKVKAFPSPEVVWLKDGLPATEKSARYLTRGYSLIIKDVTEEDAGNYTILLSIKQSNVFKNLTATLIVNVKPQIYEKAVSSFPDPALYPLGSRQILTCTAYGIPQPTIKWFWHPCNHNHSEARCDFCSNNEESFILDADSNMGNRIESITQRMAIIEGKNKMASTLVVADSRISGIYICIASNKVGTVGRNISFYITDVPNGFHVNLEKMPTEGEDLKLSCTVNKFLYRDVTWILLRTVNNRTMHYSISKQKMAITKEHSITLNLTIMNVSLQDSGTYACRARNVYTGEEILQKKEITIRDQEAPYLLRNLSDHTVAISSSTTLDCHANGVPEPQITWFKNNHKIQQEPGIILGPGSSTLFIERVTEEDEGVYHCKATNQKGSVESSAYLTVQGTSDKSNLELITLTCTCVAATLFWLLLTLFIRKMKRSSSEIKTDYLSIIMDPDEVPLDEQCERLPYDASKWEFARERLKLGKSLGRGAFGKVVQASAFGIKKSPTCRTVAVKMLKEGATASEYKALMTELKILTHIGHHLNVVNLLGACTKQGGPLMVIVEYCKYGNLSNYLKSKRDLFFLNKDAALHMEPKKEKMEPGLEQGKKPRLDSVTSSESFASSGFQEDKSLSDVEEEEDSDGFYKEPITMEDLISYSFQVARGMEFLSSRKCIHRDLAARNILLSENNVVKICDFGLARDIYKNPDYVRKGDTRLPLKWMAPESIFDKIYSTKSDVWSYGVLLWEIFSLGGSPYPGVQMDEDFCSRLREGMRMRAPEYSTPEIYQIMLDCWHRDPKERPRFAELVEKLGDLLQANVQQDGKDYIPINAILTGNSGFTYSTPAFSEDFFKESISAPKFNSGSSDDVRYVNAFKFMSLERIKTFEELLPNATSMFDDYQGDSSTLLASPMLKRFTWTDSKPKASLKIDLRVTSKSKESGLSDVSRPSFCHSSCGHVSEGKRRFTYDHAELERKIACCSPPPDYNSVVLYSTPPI
quantity.measured: pIC50
Please report pIC50 as the negative decimal logarithm of the molar concentration, giving only the number.

Qu. Notebook: pull reported pIC50 for VEGFR1 (Homo sapiens (Human), UniProt P17948), entry `Cc1ccnc(Nc2cccc(-c3cnc(N4CCNC(=O)C45CC5)o3)c2)n1`
Ans. 5.12

Reference for the values: patent US10053455B2
